- assay.system: 5HT6 human recombinant receptor (Homo sapiens, UniProt P50406)
- Sequence (P50406 whole entry): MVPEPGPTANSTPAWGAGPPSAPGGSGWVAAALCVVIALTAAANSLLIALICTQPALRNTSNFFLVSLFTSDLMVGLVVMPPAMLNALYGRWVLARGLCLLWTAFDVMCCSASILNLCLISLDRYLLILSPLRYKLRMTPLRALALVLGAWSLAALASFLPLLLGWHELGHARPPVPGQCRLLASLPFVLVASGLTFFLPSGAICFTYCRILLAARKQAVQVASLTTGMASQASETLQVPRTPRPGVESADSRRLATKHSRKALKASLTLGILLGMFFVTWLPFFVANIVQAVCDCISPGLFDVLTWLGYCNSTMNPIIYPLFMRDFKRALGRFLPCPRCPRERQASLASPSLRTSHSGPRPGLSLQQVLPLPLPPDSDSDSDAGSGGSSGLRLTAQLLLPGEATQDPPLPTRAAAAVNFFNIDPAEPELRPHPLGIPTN
- method.notes: Binding with serotonin receptor 5HT6 ([3H]-LSD radioligand displacement, HEK-293 cell membranes)
Threshold 10 nM. Ki below it: Satisfied. Ki at it or above: Not satisfied.

molecule	assigned.category
CN(C)CCc1c[nH]c2ccc(NS(=O)(=O)c3cccc4cccc(Cl)c34)cc12 [Example 6]	Satisfied
CN(C)CCc1c[nH]c2ccc(N(C)S(=O)(=O)c3cccc4c(Cl)cccc34)cc12 [Example 12]	Not satisfied
CN(C)CCc1c[nH]c2ccc(N(C)S(=O)(=O)c3cccc4ccccc34)cc12 [Example 10]	Satisfied
CN(C)CCc1c[nH]c2ccc(NS(=O)(=O)c3ccc4cc(N(C)C)ccc4c3)cc12 [Example 5]	Not satisfied
CN(C)CCc1c[nH]c2ccc(N(C)S(=O)(=O)c3ccc4ccccc4c3)cc12 [Example 11]	Not satisfied
CN(C)CCc1c[nH]c2ccc(NS(=O)(=O)c3cccc4c(O)cccc34)cc12 [Example 15]	Satisfied
COc1cccc2c(S(=O)(=O)Nc3ccc4[nH]cc(CCN(C)C)c4c3)cccc12 [Example 14]	Not satisfied
COc1cccc2cccc(S(=O)(=O)Nc3ccc4[nH]cc(CCN(C)C)c4c3)c12 [Example 18]	Satisfied
CN(C)CCc1c[nH]c2ccc(N(C)S(=O)(=O)c3ccc4c(Cl)cccc4c3)cc12 [Example 13]	Not satisfied
CN(C)CCc1c[nH]c2ccc(NS(=O)(=O)c3cccc4cccc(O)c34)cc12 [Example 19]	Not satisfied
CN(C)CCc1c[nH]c2ccc(NS(=O)(=O)c3ccc4ccc(Cl)cc4c3)cc12 [Example 4]	Satisfied
CN(C)CCc1cn(C)c2ccc(NS(=O)(=O)c3ccc4c(Cl)cccc4c3)cc12 [Example 8]	Not satisfied
CN(C)CCc1c[nH]c2ccc(NS(=O)(=O)c3ccc(F)c4ccccc34)cc12 [Example 7]	Satisfied
Cn1cc(CCN2CCCC2)c2cc(NS(=O)(=O)c3cccc4ccccc34)ccc21 [Example 9]	Not satisfied
COc1ccc2ccc(S(=O)(=O)Nc3ccc4[nH]cc(CCN(C)C)c4c3)cc2c1 [Example 16]	Satisfied
COc1ccc(S(=O)(=O)Nc2ccc3[nH]cc(CCN(C)C)c3c2)c2ccccc12 [Example 20]	Satisfied
CN(C)CCc1c[nH]c2ccc(NS(=O)(=O)c3cccc4c(N(C)C)cccc34)cc12 [Example 2]	Satisfied
CN(C)CCc1c[nH]c2ccc(NS(=O)(=O)c3ccc4ccc(O)cc4c3)cc12 [Example 17]	Satisfied

----------
Entries and their measured inhibition at 0.01 µM follow.
- assay.system: 5HT6 human recombinant receptor (Homo sapiens, UniProt P50406)
- method.notes: Binding with serotonin receptor 5HT6 ([3H]-LSD radioligand displacement, HEK-293 cell membranes)
- condition.label: read-out: Binding % Inhibition 10 nM

compound	inhibition at 0.01 µM / %
CN(C)CCc1c[nH]c2ccc(NS(=O)(=O)c3cccc4cccc(O)c34)cc12 [Example 19]	53.8
CN(C)CCc1c[nH]c2ccc(NS(=O)(=O)c3ccc4ccc(Cl)cc4c3)cc12 [Example 4]	81.2
COc1cccc2cccc(S(=O)(=O)Nc3ccc4[nH]cc(CCN(C)C)c4c3)c12 [Example 18]	69.2

----------
- assay.system: 5HT6 human recombinant receptor (Homo sapiens, UniProt P50406)
- method.notes: Binding with serotonin receptor 5HT6 ([3H]-LSD radioligand displacement, HEK-293 cell membranes)
- condition.label: read-out: Binding % Inhibition 100 nM

compound	inhibition at 0.1 µM
CN(C)CCc1c[nH]c2ccc(NS(=O)(=O)c3ccc(F)c4ccccc34)cc12 [Example 7]	95.4%
CN(C)CCc1c[nH]c2ccc(NS(=O)(=O)c3cccc4cccc(Cl)c34)cc12 [Example 6]	88.4%
CN(C)CCc1c[nH]c2ccc(N(C)S(=O)(=O)c3ccc4c(Cl)cccc4c3)cc12 [Example 13]	87.6%
CN(C)CCc1cn(C)c2ccc(NS(=O)(=O)c3ccc4c(Cl)cccc4c3)cc12 [Example 8]	93.4%
CN(C)CCc1c[nH]c2ccc(N(C)S(=O)(=O)c3ccc4ccccc4c3)cc12 [Example 11]	93.1%
CN(C)CCc1c[nH]c2ccc(NS(=O)(=O)c3ccc4cc(N(C)C)ccc4c3)cc12 [Example 5]	88.5%
Cn1cc(CCN2CCCC2)c2cc(NS(=O)(=O)c3cccc4ccccc34)ccc21 [Example 9]	86.8%
CN(C)CCc1c[nH]c2ccc(NS(=O)(=O)c3cccc4c(O)cccc34)cc12 [Example 15]	94.6%
COc1ccc2ccc(S(=O)(=O)Nc3ccc4[nH]cc(CCN(C)C)c4c3)cc2c1 [Example 16]	89.3%
CN(C)CCc1c[nH]c2ccc(N(C)S(=O)(=O)c3cccc4c(Cl)cccc34)cc12 [Example 12]	85.4%
COc1cccc2cccc(S(=O)(=O)Nc3ccc4[nH]cc(CCN(C)C)c4c3)c12 [Example 18]	88.4%
CN(C)CCc1c[nH]c2ccc(NS(=O)(=O)c3cccc4c(N(C)C)cccc34)cc12 [Example 2]	86.3%
CN(C)CCc1c[nH]c2ccc(NS(=O)(=O)c3ccc4ccc(O)cc4c3)cc12 [Example 17]	91.5%
CN(C)CCc1c[nH]c2ccc(NS(=O)(=O)c3ccc4ccc(Cl)cc4c3)cc12 [Example 4]	89.3%
COc1ccc(S(=O)(=O)Nc2ccc3[nH]cc(CCN(C)C)c3c2)c2ccccc12 [Example 20]	81.8%
CN(C)CCc1c[nH]c2ccc(N(C)S(=O)(=O)c3cccc4ccccc34)cc12 [Example 10]	92.7%
CN(C)CCc1c[nH]c2ccc(NS(=O)(=O)c3ccc4cc(Cl)ccc4c3)cc12 [Example 1]	84.4%
